Test system: alkaline phosphatase (ALP)
Construct: purchased Takara D2250
assay remarks: Conversion by alkaline phosphatase (LC-MS)
Format: in vitro ADME
conditions: alkaline phosphatase (ALP) in PBS; ALP 1 U/mL, 200 μM in PBS pH 7.4, 37°C, within 6 h, LC-MS trace; read-out: Comp. 1 converted to Comp. 2
*1 amine or outer side, *2 acyl side, *3 side chain or, on linkers, in order; H or OH if unused. Where a SMILES comes first, the peptide text is derived from it. [ ]: non-standard residue; d: D form. The star is where a group is joined. X1 = O=C(c1ccc(/N=N/c2ccc(N[*:1])cc2)cc1)[*:2]; pY = N[C@@H](Cc1ccc(OP(=O)(O)O)cc1)C(=O)O; NBD = O=[N+]([O-])c1ccc(*)c2nonc12; βAla = NCCC(=O)O
property measured: metabolised at 6 h, 200 μM

Could you please provide reported metabolised at 6 h, 200 μM for N=C(N)NCCC[C@H](NC(=O)[C@H](CCC(=O)O)NC(=O)c1ccc(/N=N/c2ccc(NC(=O)CNC(=O)[C@H](Cc3ccc(OP(=O)(O)O)cc3)NC(=O)[C@H](Cc3ccccc3)NC(=O)[C@H](Cc3ccccc3)NC(=O)CNC(=O)CCNc3ccc([N+](=O)[O-])c4nonc34)cc2)cc1)C(=O)NCC(=O)N[C@@H](CC(=O)O)C(=O)O [Comp. 1, NBD-GFFpYG-N=N-ERGD] ({NBD-βAla}-GFF[pY]G[X1]ERGD-OH) ? Thanks!
> 95%
